experiment: SMARCA2 (BRM) function activators, primary screen, cell-based, luminescence, high throughput (AID 652017); conditions: MG213 cells, MMTV-luciferase reporter, dexamethasone, overnight; at 9.1 µM; stronger effect = higher value;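 also: 0% = vehicle wells and 100% = reference activator wells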
In all, about 370,000 compounds went through this assay and about 3,800 (1%) were called active. The list comes from a sample in which actives are over-represented; it also holds close analogues and randomly drawn compounds.
Value type: activation (%)
Value expressed in %; do not type the unit.

Use the examples below as a reference point.
Smiles str: CCCCN(CC)C(=S)Nc1ccc2nc3n(c(=O)c2c1)CCCCC3
Endpoint value: -4.18
//
Smiles str: COc1ccc(S(=O)(=O)Nc2ccc3c(c2)C(=O)N([C@H](C)CO)C[C@H](C)[C@@H](CN(C)C)OCCCC[C@H](C)O3)cc1
Endpoint value: -4.35
//
Smiles str: CCOC(=O)[C@]12CCCC=C1N(CCCOC)C(=O)[C@@H]2CC(=O)N1CCOCC1
Endpoint value: -2.55

Given the compound `O=C(Nc1nc2ccc(Cl)cc2s1)c1cc(-c2ccc(Cl)cc2)nc2ccccc12` , what is its reported activation?
-3.62

Similarly, `CCCCCCCCN1C(=O)[C@@H](CC(=O)NCc2ccc(C)o2)C[C@@]2(C(=O)OC)C1=C[C@H](C(C)(C)C)O[C@@H]2C` ?
-5.88

Moving on to `O=C(NCCc1c[nH]c2ccccc12)OCc1cn(-c2c(F)cccc2F)nn1`
-1.59

====

assay: SMARCA2 (BRM) function activators, primary screen, cell-based, luminescence, high throughput (AID 652017); details: MG213 cells, MMTV-luciferase reporter, dexamethasone, overnight; at 9.1 µM; stronger effect = higher value;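 also: 0% = vehicle wells and 100% = reference activator wells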
About 3,800 (1%) of roughly 370,000 compounds were called active. Only a selection was taken, and actives are over-represented in it overall.
Parameter threshold = 10%. Response is label 1 when activation meets or exceeds it, else label 0.

Take a look at these entries with their results.
Compound: CCOc1ccccc1NC(=O)C12CC3CC(C1)CC(c1ccc(C)cc1)(C3)C2
Class label: label 0
//
Compound: CSc1ccc(/C=C/C(=O)NC23CC4CC(CC(C4)C2)C3)cc1
Class label: label 0
//
Compound: CCCCc1ccc(NC(=S)N2CCCC(CO)C2)cc1 (stereo unspecified)
Class label: label 1

Item CCC(C)c1ccc(NC(=S)N2CCCC2)cc1 (stereo unspecified) with activation of 10% or above?
label 0

Also check `COc1ccc(C(=O)CSc2nnc(-c3cnccn3)n2-c2ccc(C)cc2)cc1`
label 0

====

assay: SMARCA2 (BRM) function activators, primary screen, cell-based, luminescence, high throughput (AID 652017); conditions: MG213 cells, MMTV-luciferase reporter, dexamethasone, overnight; at 9.1 µM; stronger effect = higher value;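 also: 0% = vehicle wells and 100% = reference activator wells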
The campaign covered roughly 370,000 compounds. About 3,800 (1%) were called active. Only a selection was taken, and actives are over-represented in it overall.
Value type: activation (%)
Field format: number, assumed %, no unit text.

Compound: CCC(C)[C@@H](C(=O)OC)N(CCc1cn(Cc2ccccc2)nn1)S(=O)(=O)c1ccccc1Br (some centres undefined)
activation [%]: -5.37
--
Compound: CCCCn1nc(C(=O)Nc2cccc(C(=O)NC3CC3)c2)c2ccccc2c1=O
activation [%]: 1.35
--
Compound: CCCn1nc(C(=O)NNC(=O)CSCC(=O)Nc2cc(C)on2)c2ccccc2c1=O
activation [%]: -2.41

Return reported activation; argument: `N#Cc1ccccc1OC[C@@H](O)CN1CCC(C(O)(c2ccccc2)c2ccccc2)CC1`
-4.74

Same question for `O=C(C1CCN(S(=O)(=O)c2ccccc2)CC1)N1CCN(C2CCCCC2)CC1` please.
-4.09

Consider next the compound `NC(=O)c1oc2ccccc2c1NC(=O)CS(=O)(=O)c1ccccc1` in the same way.
-2.91

====

We begin with a simple list: items and their reported activation.
experiment: SMARCA2 (BRM) function activators, primary screen, cell-based, luminescence, high throughput (AID 652017); conditions: MG213 cells, MMTV-luciferase reporter, dexamethasone, overnight; at 9.1 µM; stronger effect = higher value;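 also: 0% = vehicle wells and 100% = reference activator wells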
About 3,800 (1%) of roughly 370,000 compounds were called active. The entries come from a sample that favours actives as a whole.
Number only, in %; omit the unit.

The following molecules have reported results that may help.
Molecule: CCc1c(C)nc2c(-c3ccccc3)c(C)nn2c1Nc1ccc(NC(C)=O)cc1
activation [%]: -0.14

Molecule: COCCOC1CCN(C(=O)c2ccc(OC)c(OC3CCN(C(C)C)CC3)c2)CC1
activation [%]: -1.95

Molecule: C=CCN1C(=O)[C@H](CC(=O)NCCCN2CCCC2=O)[C@@]2(C(=O)OCC)CCCC=C12
activation [%]: -0.89

Molecule: CC(=O)OCCN1CCCC12CCC(c1ccccc1)CC2 (stereo unspecified)
activation [%]: -0.56

Molecule: C/C(CC(=O)NC(C)(C)C)=N\NC(=O)c1ccco1
activation [%]: 8.95

Entry CC1(C(=O)NCc2ccccc2)CSCC(=O)N1CCCN1CCOCC1 (stereo unspecified) has what activation?
-6.77

// same read-out, input: `C=CCc1ccc(OCCOc2cccc(/C=N/n3cnnc3)c2)c(OC)c1`
2.79

Record: `Cc1ccc(NC(=O)Cc2cccc(F)c2)c(S(=O)(=O)N2CCOCC2)c1`
-4.77

What do you have for `C[C@@H]1CN([C@H](C)CO)C(=O)CCCn2cc(nn2)CO[C@H]1CN(C)S(=O)(=O)c1ccc(Oc2ccccc2)nc1` ?
-2.13

`CC(=O)c1cc(-c2ccc3ccccc3c2)c(=O)n2c1CCC2` , same question.
-0.02

What would you report for `CC(=O)Nc1ccc(Nc2nc3c(S(=O)(=O)c4ccc(C)c(C)c4)nnn3c3ccccc23)cc1` ?
0.7

`Cc1ccccc1NC(=O)Cn1nnc(-c2ccccc2F)n1` ?
1.3

And `COC(=O)[C@H](C(C)C)N(CCCc1cn(Cc2ccccc2)nn1)S(=O)(=O)c1ccc(F)cc1Br` ?
-0.98

Also `COc1cccc2cc(/C(C)=N/NC(=O)c3ccco3)oc12` , if possible.
5.77

Ok, now `Cc1ccc(C2=C/C(=C\c3cccnc3)C(=O)O2)cc1`
5.23

Query `COC(=O)Cc1ccc(NC(=S)NCc2ccco2)cc1` next
-1.02

====

assay: SMARCA2 (BRM) function activators, primary screen, cell-based, luminescence, high throughput (AID 652017); details: MG213 cells, MMTV-luciferase reporter, dexamethasone, overnight; at 9.1 µM; stronger effect = higher value;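 also: 0% = vehicle wells and 100% = reference activator wells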
About 3,800 (1%) of roughly 370,000 compounds were called active. What follows is part of a selection rich in actives, with near analogues and random picks from the rest.
Value type: activation (%)
Give the number; % is assumed, so skip it.

Would you please look over these solved cases?
Smiles str: O=C(c1cc(COc2ccc(F)cc2F)on1)N1CCOCC1
Value type: activation
Unit: %
Endpoint value: 2.32
--
Smiles str: O=C(c1cc(-c2ccccc2O)on1)N1CCCC1
Value type: activation
Unit: %
Endpoint value: 8.63
--
Smiles str: Cc1ccc(-c2c[n+](=O)c3c(n2[O-])CCC3)cc1
Value type: activation
Unit: %
Endpoint value: -3.37

Read the next record carefully.
Recorded activation of `O=C(Nc1ccccc1C(F)(F)F)c1cc(-c2ccc(O)cc2)on1` , please.
1.17

====

Overview of reported activation across a group of compounds:
assay: SMARCA2 (BRM) function activators, primary screen, cell-based, luminescence, high throughput (AID 652017); details: MG213 cells, MMTV-luciferase reporter, dexamethasone, overnight; at 9.1 µM; stronger effect = higher value;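 also: 0% = vehicle wells and 100% = reference activator wells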
Out of some 370,000 compounds screened, about 3,800 (1%) were called active. The sample holds actives, similar compounds and a random draw of the others, so the mix is not that of the screen.
All answers are understood in %, so give the number only.

Compound: O=C(Nc1ccc(NC(=O)c2cccs2)cn1)c1ccco1
activation (%): 9.66
//
Compound: O=C(COC(=O)CNC(=O)c1ccco1)Nc1ccc(F)cc1
activation (%): -3.14
//
Compound: Cc1cc(NC(=O)[C@H](C)NC(=O)c2ccco2)ccc1Br
activation (%): -1.37

I'd like to know its activation. The compound in question is `Cn1cccc1C(=O)Nc1nccs1`
1.12

Again, but for `Cc1c(C(=O)Nc2cccc(-c3nnc4n3CCCCC4)c2)oc2ccccc12`
-1.34

// same read-out, input: `CC1CCN(c2ccc(-c3ccc(NC(=O)c4ccco4)cc3)nn2)CC1`
3.83

Follow-up item: CC(OC(=O)CNC(=O)c1ccco1)C(=O)Nc1ccc(Cl)cn1 (configuration not stated)
-2.28

====

assay: SMARCA2 (BRM) function activators, primary screen, cell-based, luminescence, high throughput (AID 652017); details: MG213 cells, MMTV-luciferase reporter, dexamethasone, overnight; at 9.1 µM; stronger effect = higher value;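 also: 0% = vehicle wells and 100% = reference activator wells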
Screen size: about 370,000 compounds; about 3,800 (1%) were called active. What follows is part of a selection rich in actives, with near analogues and random picks from the rest.
The entries below come with measured activation values attached.
Dear colleague, please return just the value in %, with no unit written.

Some compounds with known activation results, for comparison:
Compound: CN(C)CC(=O)N[C@@H]1C[C@@H]2O[C@H](CO)CC[C@@H]2O[C@@H]1CCc1ccc(C#Cc2ccccc2)cc1
activation / %: 0.56
//
Compound: CCCCn1nnnc1C(c1ccccc1)N1CCN(c2ccccc2OC)CC1 (stereo not drawn)
activation / %: -1.13

Now consider a different compound.
I'd like to know its activation. The compound in question is `O=C(C[C@H]1CC[C@@H](NC(=O)c2ccncc2)[C@@H](CO)O1)NCC1CC1`
-1.73
